# ASSAYED_TARGET: AgAbp1
# MEASUREMENT_NOTES: SPOT peptide array binding signal intensity (averaged, normalized) (arbitrary units (background-subtracted, floor 0; scale differs between SH3 domains)); higher = stronger binding of the SH3 domain to the peptide
Param threshold (90) applies to SPOT peptide array binding signal intensity; output MET when value >= threshold, NOT MET when value < threshold.

Solved entries (count: 5):
BINDER | CLASS_NAME
RAPPPVPKKPSSRIA | MET
QPWTDQFEKLEKEVS | NOT MET
QTMRQAPKRPDADVA | NOT MET
NTMKKRPAPPSLPSL | MET
EAEEAAPQLPSRSSA | NOT MET

Reported SPOT peptide array binding signal intensity reaches at least 90 for NQARKPFLLPATELS ? NOT MET

Reported SPOT peptide array binding signal intensity reaches at least 90 for NVLRKILEIPLHSFS ? NOT MET
